Data provenance is patent EP4656640A1.

Target: IRAK4 (Homo sapiens)
Sequence (Q9NWZ3 1-460): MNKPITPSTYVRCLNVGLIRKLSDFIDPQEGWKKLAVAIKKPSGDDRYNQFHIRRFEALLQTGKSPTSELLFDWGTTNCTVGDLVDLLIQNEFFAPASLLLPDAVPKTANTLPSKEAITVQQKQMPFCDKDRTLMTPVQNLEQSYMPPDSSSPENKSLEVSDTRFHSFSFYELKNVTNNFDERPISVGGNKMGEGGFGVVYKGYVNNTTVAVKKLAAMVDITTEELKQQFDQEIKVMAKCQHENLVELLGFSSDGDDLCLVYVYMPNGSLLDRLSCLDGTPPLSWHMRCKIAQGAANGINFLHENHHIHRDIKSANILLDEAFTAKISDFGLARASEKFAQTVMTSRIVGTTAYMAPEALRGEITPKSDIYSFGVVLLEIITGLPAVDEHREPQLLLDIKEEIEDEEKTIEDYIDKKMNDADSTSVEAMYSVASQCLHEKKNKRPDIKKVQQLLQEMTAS
Test: Degradation of IRAK4 in SU-DHL-2 cells (flow cytometry)
Type: cell-based
Parameters: The degradation level of IRAK4 protein in SU-DHL-2 cell line by the compounds was detected by flow cytometry; endogenous in cells; host or cells: SU-DHL-2; OCI-LY3
Settings: SU-DHL-2 cells, 24 hours incubation; read-out: SU-DHL-2 DC50

# compound, target-under-test, unit-of-measure, DC50
data = [
    ("Cn1c(=O)n(C2CCC(=O)NC2=O)c2cccc(C#CCOC3CC(CN4CCC5(CCC(n6cc(NC(=O)c7cnn8ccc(N9C[C@H]%10C[C@@H]9CO%10)nc78)c(C(F)F)n6)CC5)CC4)C3)c21 (some centres unmarked)", "IRAK4 (Homo sapiens)", "nM", 33),
    ("Cn1c(=O)n(C2CCC(=O)NC2=O)c2cccc(C#CCOC[C@H]3C[C@H]3CN3CCC4(CC3)CC(n3cc(NC(=O)c5cnn6ccc(N7C[C@H]8C[C@@H]7CO8)nc56)c(C(F)F)n3)C4)c21 (relative stereo)", "IRAK4 (Homo sapiens)", "nM", 5.4),
    ("Cn1c(=O)n(C2CCC(=O)NC2=O)c2cccc(C#CCOC3CCC(CN4CCC5(CCC(n6cc(NC(=O)c7cnn8ccc(N9C[C@H]%10C[C@@H]9CO%10)nc78)c(C(F)F)n6)CC5)CC4)CC3)c21 (some centres unmarked)", "IRAK4 (Homo sapiens)", "nM", 13),
    ("Cn1c(=O)n(C2CCC(=O)NC2=O)c2cccc(C#CCCN3CCC4(CC3)CC(n3cc(NC(=O)c5cnn6ccc(N7C[C@H]8C[C@@H]7CO8)nc56)c(C(F)F)n3)C4)c21 (some centres unmarked)", "IRAK4 (Homo sapiens)", "nM", 1.4),
    ("Cn1c(=O)n(C2CCC(=O)NC2=O)c2cccc(C#CCCCCN3CCC4(CC3)CC(n3cc(NC(=O)c5cnn6ccc(N7C[C@H]8C[C@@H]7CO8)nc56)c(C(F)F)n3)C4)c21 (some centres unmarked)", "IRAK4 (Homo sapiens)", "nM", 5),
]

---

Experiment: Mouse pharmacokinetics, oral (Experiment 2)
Assay type: in vivo, C57BL/6 mice
Conditions: mice, PO 100 mg/kg, free access to food, plasma
metric: Tmax (h)

# compound, assay-value
rows = [
    ("Cn1c(=O)n(C2CCC(=O)NC2=O)c2cccc(C#CCOC34CCC(CN5CCC6(CC5)CC(n5cc(NC(=O)c7cnn8ccc(N9C[C@H]%10C[C@@H]9CO%10)nc78)c(C(F)F)n5)C6)(CC3)CC4)c21 (stereo partly shown)", 8),
]

---

// Cmax lookup, one value per entry
Test: Dog pharmacokinetics, oral gavage (Experiment 3)
Assay type: in vivo
Conditions: Beagle dogs, oral gavage 2.5 mg/kg, plasma

# compound, Cmax
rows = [
    ("Cn1c(=O)n(C2CCC(=O)NC2=O)c2cccc(C#CCOC3CCN(C[C@H]4CC[C@H](n5cc(NC(=O)c6cnn7ccc(N8C[C@H]9C[C@@H]8CO9)nc67)c(C(F)F)n5)CC4)CC3)c21 (some centres unmarked) [KT-474, reference compound]", "31 ng/mL"),
    ("Cn1c(=O)n(C2CCC(=O)NC2=O)c2cccc(C#CCCN3CCC4(CC3)CC(n3cc(NC(=O)c5cnn6ccc(N7C[C@H]8C[C@@H]7CO8)nc56)c(C(F)F)n3)C4)c21 (some centres unmarked)", "100 ng/mL"),
    ("Cn1c(=O)n(C2CCC(=O)NC2=O)c2cccc(C#CCOC3CCN(C(=O)N4CCC5(CC4)CC(n4cc(NC(=O)c6cnn7ccc(N8C[C@H]9C[C@@H]8CO9)nc67)c(C(F)F)n4)C5)CC3)c21 (some centres unmarked)", "102 ng/mL"),
    ("Cn1c(=O)n(C2CCC(=O)NC2=O)c2cccc(C#CCO[C@H]3CC[C@H](CN4CCC5(CC4)CC(n4cc(NC(=O)c6cnn7ccc(N8C[C@H]9C[C@@H]8CO9)nc67)c(C(F)F)n4)C5)CC3)c21 (some centres unmarked)", "15 ng/mL"),
    ("Cn1c(=O)n(C2CCC(=O)NC2=O)c2cccc(C#CCOC34CCC(CN5CCC6(CC5)CC(n5cc(NC(=O)c7cnn8ccc(N9C[C@H]%10C[C@@H]9CO%10)nc78)c(C(F)F)n5)C6)(CC3)CC4)c21 (some centres unmarked)", "78 ng/mL"),
]

---

Experiment: Mouse pharmacokinetics, oral (Experiment 1)
Assay type: in vivo, C57BL/6 mice
Conditions: mice, PO 100 mg/kg, fasted overnight, plasma
// Tmax lookup, one value per entry
metric: Tmax (h)

# compound, assay-value
data = [
    ("Cn1c(=O)n(C2CCC(=O)NC2=O)c2cccc(C#CCOC3CCN(C(=O)N4CCC5(CC4)CC(n4cc(NC(=O)c6cnn7ccc(N8C[C@H]9C[C@@H]8CO9)nc67)c(C(F)F)n4)C5)CC3)c21 (stereo partly drawn) [Example 13]", 1),
    ("Cn1c(=O)n(C2CCC(=O)NC2=O)c2cccc(C#CCCN3CCC4(CC3)CC(n3cc(NC(=O)c5cnn6ccc(N7C[C@H]8C[C@@H]7CO8)nc56)c(C(F)F)n3)C4)c21 (stereo partly drawn) [Example 22]", 1.7),
    ("Cn1c(=O)n(C2CCC(=O)NC2=O)c2cccc(C#CCO[C@H]3CC[C@H](CN4CCC5(CC4)CC(n4cc(NC(=O)c6cnn7ccc(N8C[C@H]9C[C@@H]8CO9)nc67)c(C(F)F)n4)C5)CC3)c21 (stereo partly drawn) [Example 31]", 3.3),
]

---

// AUC(0-t) at 24 h lookup, one value per entry
Assay: Mouse pharmacokinetics, oral (Experiment 1)
Format: in vivo, C57BL/6 mice
Conditions: mice, PO 100 mg/kg, fasted overnight, plasma

# molecule, AUC(0-t) at 24 h [µg·h/mL]
records = [
    ("Cn1c(=O)n(C2CCC(=O)NC2=O)c2cccc(C#CCO[C@H]3CC[C@H](CN4CCC5(CC4)CC(n4cc(NC(=O)c6cnn7ccc(N8C[C@H]9C[C@@H]8CO9)nc67)c(C(F)F)n4)C5)CC3)c21 (stereo partly drawn)", 4.89),
    ("Cn1c(=O)n(C2CCC(=O)NC2=O)c2cccc(C#CCOC3CCN(C(=O)N4CCC5(CC4)CC(n4cc(NC(=O)c6cnn7ccc(N8C[C@H]9C[C@@H]8CO9)nc67)c(C(F)F)n4)C5)CC3)c21 (stereo partly drawn)", 16.3),
    ("Cn1c(=O)n(C2CCC(=O)NC2=O)c2cccc(C#CCCN3CCC4(CC3)CC(n3cc(NC(=O)c5cnn6ccc(N7C[C@H]8C[C@@H]7CO8)nc56)c(C(F)F)n3)C4)c21 (stereo partly drawn)", 17.6),
]

---

Test system: TNFα secretion
Assay: Inhibition of induced TNFα secretion in human PBMCs (CBA)
Type: cell-based
Settings: PBMC, LPS 100 ng/mL, read-out: IC50, TNFα secretion induced by LPS
pIC50: −log10 of the molar value.

# molecule, pIC50
measured = [
    ("Cn1c(=O)n(C2CCC(=O)NC2=O)c2cccc(C#CCOC34CCC(CN5CCC6(CC5)CC(n5cc(NC(=O)c7cnn8ccc(N9C[C@H]%10C[C@@H]9CO%10)nc78)c(C(F)F)n5)C6)(CC3)CC4)c21 (some centres unmarked)", 8.07),
    ("Cn1c(=O)n(C2CCC(=O)NC2=O)c2cccc(C#CCO[C@H]3CC[C@H](CN4CCC5(CC4)CC(n4cc(NC(=O)c6cnn7ccc(N8C[C@H]9C[C@@H]8CO9)nc67)c(C(F)F)n4)C5)CC3)c21 (some centres unmarked)", 8.11),
    ("Cn1c(=O)n(C2CCC(=O)NC2=O)c2cccc(C#CCCN3CCC4(CC3)CC(n3cc(NC(=O)c5cnn6ccc(N7C[C@H]8C[C@@H]7CO8)nc56)c(C(F)F)n3)C4)c21 (some centres unmarked)", 8.92),
    ("Cn1c(=O)n(C2CCC(=O)NC2=O)c2cccc(C#CCOC3CCN(C[C@H]4CC[C@H](n5cc(NC(=O)c6cnn7ccc(N8C[C@H]9C[C@@H]8CO9)nc67)c(C(F)F)n5)CC4)CC3)c21 (some centres unmarked) [KT-474, reference compound]", 7.51),
    ("Cn1c(=O)n(C2CCC(=O)NC2=O)c2cccc(C#CCOC3CCN(C(=O)N4CCC5(CC4)CC(n4cc(NC(=O)c6cnn7ccc(N8C[C@H]9C[C@@H]8CO9)nc67)c(C(F)F)n4)C5)CC3)c21 (some centres unmarked)", 7.65),
]
